Hi there, I'd appreciate the recorded SPOT intensity for every entry that follows.
test.target: T1, Cdc25, P04821
T1 sequence (P04821 50-136, looked up): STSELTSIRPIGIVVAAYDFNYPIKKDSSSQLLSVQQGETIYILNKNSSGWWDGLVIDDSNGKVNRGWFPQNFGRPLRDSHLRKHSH
test: SPOT array
cond: median of control spots 969
API note: the answer field is a bare number with no unit suffix.

Asked: # get_value(readout='SPOT intensity', item= TKHKAPPPPPPTAET )
Given back: 0

Asked: # repeat for LRWRHKFFLPAIAAI
Given back: 26

Asked: Next record, please: PSRRAPLQLPQLVNK
Given back: 0

Asked: Please do the same for LSKRLPLRFPEHTSS as well.
Given back: 3

Asked: Proceed to LTRRFPFLFPFDTRM
Given back: 21

Asked: Try AAAPKHAPPPVPNET next.
Given back: 0

Asked: Do the same for AKDLIVPRRPEWNEG please
Given back: 347

Asked: And the next one, NNQRRKPLLLNIGDH ?
Given back: 216

Asked: Similarly, PSPSSSPPPIPKTAN ?
Given back: 1

Asked: Request: NSMRPPLLIPAATTK
Given back: 37

Asked: Quick one: NHSRSLFSLPGNQQS
Given back: 333

Asked: MAMRPIPPLPTESEY ?
Given back: 0

Asked: What do we get for NLPKRKPPKLQGPFS ?
Given back: 53

Asked: Please give the result for AVPPPPPPPPLPESL too.
Given back: 0

Asked: Now give it for PPPPPPPPPPLPQSL too.
Given back: 0

Asked: Entry to check: GKLKHIPRRPYEIER
Given back: 0

Asked: Cool, now RRTRLRPPTPLSQLL
Given back: 24

Asked: Next: NRPAIRIPSLKKPAL
Given back: 5

Asked: And the next one, PPLPRAPPVPPATFE ?
Given back: 1

Asked: # iterate: SSSSTPPTLPPRRIE
Given back: 2

Asked: Please answer likewise for LLIRWLILMPLVGSR
Given back: 176

Asked: Please do the same for SHRLWLYAAPKRPKT as well.
Given back: 5

Asked: Further, for VRVKKRPLIRPLNSS ?
Given back: 127

Asked: Another binder to check: VGFRLALKFPSRITG
Given back: 490

Asked: Now the same for ATKSASPTLPTRRSR
Given back: 22

Asked: And then RMVRRRPLRVQFSAR , what is it?
Given back: 94

Asked: Param item: AAHKTKPSIPPKKVE
Given back: 0

Asked: For NAGIRPKFILALNDE then?
Given back: 22

Asked: What do you have for KRNRLKILLPFLEQS ?
Given back: 28

Asked: Next record, please: RPPRPPPKPLHLRTE
Given back: 0
